Catalogue of molecules with associated IC50
subject of test: cloned human NR1/NR2B ion channels (Homo sapiens (Human), UniProt Q05586+Q13224)
Sequence (Q13224 27-1484, other chains not shown): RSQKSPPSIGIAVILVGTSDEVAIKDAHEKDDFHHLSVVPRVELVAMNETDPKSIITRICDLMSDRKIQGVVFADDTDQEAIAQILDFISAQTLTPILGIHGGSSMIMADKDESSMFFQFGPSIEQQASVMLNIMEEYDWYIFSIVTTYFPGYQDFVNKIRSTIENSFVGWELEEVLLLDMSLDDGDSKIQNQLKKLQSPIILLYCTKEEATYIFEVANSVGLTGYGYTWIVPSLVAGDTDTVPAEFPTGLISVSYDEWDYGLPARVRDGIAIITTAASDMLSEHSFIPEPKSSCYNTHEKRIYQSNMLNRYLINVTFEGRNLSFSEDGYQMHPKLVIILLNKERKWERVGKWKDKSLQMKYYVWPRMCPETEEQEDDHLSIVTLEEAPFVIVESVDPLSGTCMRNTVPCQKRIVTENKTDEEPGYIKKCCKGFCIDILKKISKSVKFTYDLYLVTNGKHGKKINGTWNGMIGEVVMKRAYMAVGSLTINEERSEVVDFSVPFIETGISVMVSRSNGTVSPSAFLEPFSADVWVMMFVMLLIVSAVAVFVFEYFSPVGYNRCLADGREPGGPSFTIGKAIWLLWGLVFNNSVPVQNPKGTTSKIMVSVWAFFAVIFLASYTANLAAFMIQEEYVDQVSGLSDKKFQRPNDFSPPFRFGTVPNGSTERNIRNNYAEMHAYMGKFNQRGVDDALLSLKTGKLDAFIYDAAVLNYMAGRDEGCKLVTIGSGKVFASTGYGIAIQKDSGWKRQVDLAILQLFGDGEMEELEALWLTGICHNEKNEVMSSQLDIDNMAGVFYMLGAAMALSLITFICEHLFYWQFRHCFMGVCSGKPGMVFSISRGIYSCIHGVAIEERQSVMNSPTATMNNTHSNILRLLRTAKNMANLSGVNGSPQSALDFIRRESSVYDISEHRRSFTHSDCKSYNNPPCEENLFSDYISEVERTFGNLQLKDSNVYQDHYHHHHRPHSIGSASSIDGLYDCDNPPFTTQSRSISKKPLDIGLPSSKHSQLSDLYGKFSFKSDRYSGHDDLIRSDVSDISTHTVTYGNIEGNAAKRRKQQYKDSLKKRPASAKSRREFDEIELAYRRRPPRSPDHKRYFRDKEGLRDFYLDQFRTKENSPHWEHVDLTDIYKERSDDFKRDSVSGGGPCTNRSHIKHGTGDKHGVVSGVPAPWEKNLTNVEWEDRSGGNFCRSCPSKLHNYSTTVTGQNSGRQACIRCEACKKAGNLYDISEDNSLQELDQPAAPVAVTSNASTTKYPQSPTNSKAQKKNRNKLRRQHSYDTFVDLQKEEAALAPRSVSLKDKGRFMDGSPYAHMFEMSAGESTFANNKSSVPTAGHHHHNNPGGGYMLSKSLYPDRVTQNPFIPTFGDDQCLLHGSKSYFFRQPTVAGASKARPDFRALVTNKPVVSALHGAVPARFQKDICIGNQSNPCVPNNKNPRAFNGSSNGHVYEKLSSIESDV
experiment: HNR2BC: effects of test articles on cloned human NR1/NR2B ion channels expressed in mammalian cells (FLIPR calcium flux)
Assay type: cell-based
test settings: cloned human NR1/NR2B ion channels, Table 5
Give the number; nM is assumed, so skip it.

Example entries begin here.
1) Cc1cn(CC(=O)N(C)C)c2cc(-c3ccc(Cl)s3)cnc12
100
2) CN(C)C(=O)Cn1cc(F)c2ncc(-c3cccs3)cc21
63.1
3) Cc1cccc(-c2cnc3c(C)cn(CC(=O)N4CC(F)C4)c3c2)c1
126
4) CN(C)C(=O)Cn1cc(Cl)c2ncc(-c3cccc(C(F)(F)F)n3)cc21
126
5) O=C(Cn1cc(Cl)c2ncc(-c3cccc(C(F)F)c3)cc21)N1CCC1
79.4

Input line: Item under review: Cc1cn(CC(=O)N(C)C)c2cc(-c3ccccc3F)cnc12 . Reported IC50?
Output line: 251

Input line: Follow-up entry: Cc1cccc(-c2cnc3c(Cl)cn(CC(=O)N(C)C)c3c2)c1F
Output line: 50.1

Input line: Follow-up entry: Cc1ccc(F)c(-c2cnc3ccn(CC(=O)N(C)C)c3c2)c1F
Output line: 631

Input line: Follow-up entry: Cc1cn(CC(=O)N2CC(F)C2)c2cc(-c3cc(F)c(F)c(F)c3)cnc12
Output line: 39.8

Input line: Follow-up entry: Cc1ccc(-c2cnc3c(Cl)cn(CC(=O)N4CCC4)c3c2)s1
Output line: 316

Input line: Follow-up entry: O=C(Cn1ccc2ncc(-c3ccc(F)c(Cl)c3)cc21)N1CCC1
Output line: 63.1

* * *

subject of test: cloned human NR1/NR2B ion channels (Homo sapiens (Human), UniProt Q05586+Q13224)
experiment: HNR2BC: effects of test articles on cloned human NR1/NR2B ion channels expressed in mammalian cells (FLIPR calcium flux)
Format: cell-based
test settings: cloned human NR1/NR2B, Table 5
Structures can show the parent of a compound that is named as a salt.
Catalogue of compounds with associated IC50
Give the number; nM is assumed, so skip it.

1) Cc1c(F)ccc(-c2cnc3ccn(CC(=O)C(C)C)c3c2)c1C
79.4
2) Cc1cc(F)ccc1-c1cnc2ccn(CC(=O)N3CCC3)c2c1 [Example 163, trifluoroacetate salt]
79.4
3) O=C(Cn1ccc2ncc(-c3ccc(F)c(F)c3F)cc21)NC1CC1
79.4
4) Cc1cn(CC(=O)N2CCCC2)c2cc(-c3ccc(F)cc3)cnc12
50.1

Input line: Param readout = IC50; param system = cloned human NR1/NR2B ion channels (Homo sapiens (Human), UniProt Q05586+Q13224); param query = Cc1cccc(-c2cnc3cc(C)n(CC(=O)N4CCOCC4)c3c2)c1 ; response: value
Output line: 501

Input line: Follow-up entry: Cc1cc(Cn2ccc3ncc(-c4ccccc4C)cc32)no1 [Example 62, trifluoroacetate salt]
Output line: 126

Input line: Follow-up entry: O=C(Cn1ccc2ncc(-c3ccc(F)cc3)cc21)NCc1ccccc1
Output line: 50.1

Input line: Follow-up entry: O=C(Cn1ccc2ncc(-c3ccc(F)cc3)cc21)NC1CC1
Output line: 251

Input line: Follow-up entry: O=C(Cn1cc(F)c2ncc(-c3ccc(F)cc3)cc21)C1CC1
Output line: 20

Input line: Follow-up entry: Cc1cc(-c2cnc3c(Cl)cn(CC(=O)C4CCC4)c3c2)ccc1F
Output line: 5010
